biological target: T1, human CD71 extracellular domain (human, UniProt P02786 89-760); assay: primary ELISA screen, Screen 4; signal on hCD71 over signal on HSA
T1 construct: also called hCD71; CD71-ECD
T1 sequence (P02786 89-760): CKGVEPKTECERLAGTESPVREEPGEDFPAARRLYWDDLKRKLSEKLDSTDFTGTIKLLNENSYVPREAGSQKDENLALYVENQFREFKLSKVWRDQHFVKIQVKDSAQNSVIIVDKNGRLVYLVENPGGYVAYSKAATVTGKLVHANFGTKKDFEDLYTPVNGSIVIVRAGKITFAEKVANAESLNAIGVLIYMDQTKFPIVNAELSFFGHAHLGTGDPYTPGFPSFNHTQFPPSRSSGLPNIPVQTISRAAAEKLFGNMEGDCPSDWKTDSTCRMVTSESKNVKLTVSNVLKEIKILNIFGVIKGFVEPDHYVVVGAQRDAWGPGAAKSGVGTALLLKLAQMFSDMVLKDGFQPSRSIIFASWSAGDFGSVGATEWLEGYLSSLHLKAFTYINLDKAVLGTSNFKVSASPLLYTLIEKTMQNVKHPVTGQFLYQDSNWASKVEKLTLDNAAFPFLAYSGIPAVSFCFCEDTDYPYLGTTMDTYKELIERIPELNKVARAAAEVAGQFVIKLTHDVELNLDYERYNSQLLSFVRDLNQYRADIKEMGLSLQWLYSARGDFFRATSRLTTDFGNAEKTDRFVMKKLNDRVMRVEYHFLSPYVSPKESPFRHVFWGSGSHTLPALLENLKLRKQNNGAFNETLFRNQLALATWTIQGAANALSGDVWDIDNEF
Readings of hCD71:HSA for the listed binders
parameter measured: hCD71:HSA

binder: CD71-binding FN3 domain of SEQ ID NO: 546 (designed binder) MLPAPKNLVVSRVTEDSARLSWTAPDAAFDSFEIAYIEVNIQGEAIVLTVPGSERSYDLTGLKPGTEYYVHIGGVKGGPSSSPLSAIFTT
parameter measured: hCD71:HSA
result: 374 ratio
//
binder: CD71-binding FN3 domain of SEQ ID NO: 549 (designed binder) MLPAPKNLVVSRVTEDSARLSWTAPDAAFDSFFIGYLEPQPPGEAISLWVPGSERSYDLTGLKPGTEYNVTIQGVKGGFPSMPLSAIFTT
parameter measured: hCD71:HSA
result: 198 ratio
//
binder: CD71-binding FN3 domain of SEQ ID NO: 552 (designed binder) MLPAPKNLVVSRVTEDSARLSWTAPDAAFDSFFIGYLEPQPPGEAIHLFVPGSERSYDLTGLKPGTEYNVTIQGVKGGFPSMPLSAIFTT
parameter measured: hCD71:HSA
result: 119 ratio
